TARGET: pooled human IgG
Please go through the items and note down their Enzyme Activity Endpoint Assay (purified): scIgG.
Report the value in ng/µL with no unit label.

Q: Item PRT-634 (protein) MQITSVWTKGVTPLTPEQFRYNNYDVIHAPYKPNQGWYDITKAFDGKDNLLCGAATAGNMLHWWFDQNKTEIEAYLSKHPEKQKIIFNNQELFDLKAAIDTKDSQTNSQLFNYFRDKAFPNLSARQLGVMPDLVLDMFINGYYLNVFKTQSTDVNRPYQDKDKRGGIFDAVFTRGDQTTLLTARHDLKNKGLNDISTIIKQELTEGKALALSHTYANVSISHVINLWGADFNAEGNLEAIYVTDSDANASIGMKKYFVGINAHGHVAISAKKIEGENIGAQVLGLFTLSSGKDIWQKLSLEHHHHHH : provide Enzyme Activity Endpoint Assay (purified): scIgG
Ans: 0

Q: Give recorded Enzyme Activity Endpoint Assay (purified): scIgG. PRT-239 (protein) MEVVEVWPYGQNPNGKTEILSQTEDSESLQRLRDIEDFQAEKKMQNVVYTKWLDGVDVKDHDFRKIVDGGTAYYATPLLNGRGFYDINKDFNRDSLLCSAAVAANMFHYWLDINRDNVDRFLRQNPEKHGIIELPDGQLKLSDFLNTYESDHGYRDKSKLFDYISNNFNGGLWTDKLLDNYINGYGYNKKYGRTIEDPTKNTSKINFFKEVFNEKILTNNHQIRNQNEFSVLLSEALYTGKAIGLSYGPAGLRHSLGHIISVWGADLDADGNVVAIYVTDSDDKKLTIGDERVGLKRYKISTDDNNRLRLTAYEETHNTGGQIRGLWTLDTGKYAWADYFDKTEQTGTDQAEQLEHHHHHH
Ans: 360

Q: Given PRT-158 (protein) MANQEIRYSEVTPYHVTSVWTKGVTPPTDFIKGEDVFHAPYKAHQGWYDITKTFNGKDDLLCGAATAGNMLHWWFDQNKDQIKRYLEEHPEKQKINFNGEQMFDVKEAIDTKNHQLDSKLFEYFKEKAFPYLSTKHLGVFPDHVIDMFINGYRLSLTNHGPTPVKEGSKDPRGGIFDAVFTRGDQSKLLTSRHDFKEKNLKEISDLIKKELQEGKALGLSHTYANVRINHVINLWGADFDSNGNLKAIYVTDSDSNASIGMKKYFVGVNSAGKVAISAKEIKEDNIGAQVLGLFTLSTGQDSWNQTN , respond with its Enzyme Activity Endpoint Assay (purified): scIgG.
Ans: 0

Q: Check the records and state Enzyme Activity Endpoint Assay (purified): scIgG for PRT-250 (protein) MVTSVWTKGVTPPTNFTYGEDVLHAPYVANQGWYDITKLFNGKDDLLCGAATAGNMLHWWFDQNKEQIENYLKKHPEKQKINFNGEQMFDVKEAIDTKDSQLDSKLFDYFKEKAFPNLSTKHLGVFPDHVIDMFINGYRLSLLNHGPTPVKRGSKDPRGGIFDAVFTRGDQSKLLTNRHDFKEKTLKEISDLIKQELTEGKALGISHTYANGRINHVINLWGADFDAEGNLEAIYVTDSDSNPSIGMKKYFVGVNSSGKVAISAKEIEEDNIGAQVLGLFTLSTGQDIWNQTN
Ans: 454

Q: Supply recorded Enzyme Activity Endpoint Assay (purified): scIgG for PRT-139 (protein) MRNATEAYAKEVPHQITSVWTKGVTPLTPEQFRYNNEDVIHAPYLANQGWYDITKAFDGKDNLLCGAATAGNMLHWWFDQNKTEIEAYLSKHPEKQKIIFNNQELFDLKAAIDTKDSQTNSQLFNYFRDKAFPNLSARQLGVMPDLVLDMFINGYYLNVFKTQSTDVNRPYQDKDKRGGIFDAVFTRGDQTTLLTARHDLKNKGLNDISTIIKQELTEGRALALSHTYANVSISHVINLWGADFNAEGNLEAIYVTDSDANASIGMKKYFVGINAHGHVAISAKKIEGENIGAQVLGLFTLSSGKDIWQKLS here.
Ans: 0

Q: Please supply the value of reported Enzyme Activity Endpoint Assay (purified): scIgG for the item PRT-606 (protein) MQITSVWTKGVTPLTPEQFRYNNEDVIHAPYLAHQGWYDITKAFDGKDNLLCGAATAGNMLHWWFDQNKTEIEAYLSKYPDKQKIIFNNQELFDLKAAIDTKDSQTNSQLFNYFRDKAFPNLSARQLGVMPDLVLDMFINGYYLNVFKTQSTDVNRPYQDKDKRGGIFDAVFTRGDQTTLLTARHDLKNKGLNDISTIIKQELTEGRALALSHTYANVSISHVINLWGADFNAEGNLEAIYVTDSDANASIGMKKYFVGINAHGHVAISAKKIEGENIGAQVLGLFTLSSGKEIWQKLSLEHHHHHH
Ans: 0

Q: Give recorded Enzyme Activity Endpoint Assay (purified): scIgG. PRT-620 (protein) MQITSVWTKGVTPLTPEQFRYNNEDVIHAPYLAHQGWYDITKAFDGKDNLLCGAATAGNMLHWWFDQNKTEIEAYLSKHPEKQKIIFNNQELFDLKAAIDTKDSQTNSQLFNYFRDKAFPNLSARQLGVMPDLVLDMFINGYYLNVFKTQSTDVNRPYQDKDKRGGIFDAVFTRGDQTTLLTARHDLKNKTLKEISDIIKQELTEGRALALSHTYANVSISHVINLWGADFNAEGNLEAIYVTDSDANASIGMKKYFVGINAHGHVAISAKKIEGENIGAQVLGLFTLSSGKDIWQKLSLEHHHHHH
Ans: 0

Q: Report measured Enzyme Activity Endpoint Assay (purified): scIgG; entry is PRT-82 (protein) MANQEIRYSEVTPSTITSVWTKGVTPPAQFIQNEDVFHAPYVANQGWYDITKTFNGKDDLLCGAATAGNMLHWWFDQNKEEIEAYLKKHPEKQKIMFGDQELLDVRKVINTKDDQTNSALFNYFKDKAFPNLSARRLGVMPDLVLDMFINGYYLNVGKTQTTDVNRTYQNKDRRGGIFDAVFTRGDQSKLLTARHDFKEKNLNEISDLIKQELTEGKALALSHTYANVSINHVINLWGADFDANGNLEAIYVTDSDSNASIGMKKYFVGVNSAGKVAISAKEIEEDNIGAQVLGLFTLSTGQDIWNKTN
Ans: 60
